# GI50 listing for each entry below
PROCEDURE_DETAILS: Antiproliferative activity against human HMC1 cells expressing FLT3-delta599 mutant after 72 hrs by WST-1 assay
Assay type: functional
PARTICULARS: HMC1, 72 h
Give a bare numeral; the unit µM is implied.

Below, 5 compounds whose answers are already recorded.
CCCNc1nc(NCCc2ccncc2)ncc1-c1nnc(CN2CCN(C)CC2)o1    0.037
CCNc1nc(NCCc2ccncc2)ncc1-c1nnc(CN2CCN(C)CC2)o1    0.114
CCNc1nc(NCCc2ccncc2)ncc1-c1nnc(CN2C[C@@H](C)N[C@@H](C)C2)o1    0.074
CCCNc1nc(NCCc2ccncc2)ncc1-c1nnc(CN2CCNCC2)o1    0.074
CCCNc1nc(NCCc2ccncc2)ncc1-c1nnc(CO)o1    0.076

Exercise: Given CCCNc1nc(NCCc2ccncc2)ncc1-c1nnc(C2CC2)o1 , state its recorded GI50.
Solution: 0.036

====

Test system: Liver microsomes
PROCEDURE_DETAILS: Metabolic stability in human liver microsomes assessed as intrinsic clearance
Type: ADME, Microsome
PROPERTY_NAME: clearance (mL/min/kg)
Give your result in mL/min/kg as a bare value.

Example entries begin here.
c1ccc(Nc2nc(NCCc3ccncc3)ncc2-c2nnc(CN3CCNCC3)o2)cc1    38.3
CCNc1nc(NCCc2ccncc2)ncc1-c1nnc(CN2CCN(C)CC2)o1    45
Oc1cc(CCNc2ncc(-c3nnc(C4CC4)o3)c(Nc3ccccc3)n2)ccn1    41.7
CCCOc1nc(NCCc2ccncc2)ncc1-c1nnc(CN2CCN(C)CC2)o1    11.7
CCCNc1nc(NCCc2ccncc2)ncc1-c1nnc(CO)o1    35

Exercise: Given CCCNc1nc(NCCc2ccncc2)ncc1-c1nnc(CN2CCN(C(C)=O)CC2)o1 , state its recorded clearance.
Solution: 137

Exercise: Consider the molecule CCCNc1nc(NCCc2ccncc2)ncc1-c1nnc(CN2CCN(CCO)CC2)o1 and give its measured clearance.
Solution: 50

Exercise: Looking for the measured clearance of [O-][n+]1ccc(CCNc2ncc(-c3nnc(C4CC4)o3)c(Nc3ccccc3)n2)cc1 , can you help?
Solution: 3.33

Exercise: Which clearance is reported for this molecule? CCCNc1nc(NCCc2ccncc2)ncc1-c1nnc(CNCCN(C)C)o1
Solution: 50

Exercise: Query: clearance; subject: Cc1ccccc1Nc1nc(NCCc2ccncc2)ncc1-c1nnc(C2CC2)o1
Solution: 217

Exercise: Consider the molecule CCCNc1nc(NCCc2ccncc2)ncc1-c1nnc(CN2CCC(N)CC2)o1 and give its measured clearance.
Solution: 50

Exercise: # input molecule: CNc1nc(NCCc2ccncc2)ncc1-c1nnc(C2CC2)o1 ; wanted: its clearance
Solution: 20

Exercise: Report clearance for CNc1nc(NCCc2ccncc2)ncc1-c1nnc(CN2CCN(C)CC2)o1 please.
Solution: 1.67

Exercise: Name the recorded clearance for CCCNc1nc(NCCc2ccncc2)ncc1-c1nnc(CN(C)C)o1 .
Solution: 183

Exercise: Query (molecule): Cc1cc(CCNc2ncc(-c3nnc(C4CC4)o3)c(Nc3ccccc3)n2)ccn1 ; field requested: clearance
Solution: 367

Exercise: Tell me the measured clearance of Oc1cccc(Nc2nc(NCCc3ccncc3)ncc2-c2nnc(C3CC3)o2)c1 , please.
Solution: 267

Exercise: Please give the measured clearance for this molecule: c1cc(CCNc2ncc(-c3nnc(CN4CCNCC4)o3)c(NC3CCC3)n2)ccn1
Solution: 105

Exercise: Return reported clearance; argument: CN1CCN(Cc2nnc(-c3cnc(NCCc4ccncc4)nc3NCC3CC3)o2)CC1
Solution: 86.7

Exercise: Which clearance reading was recorded for the molecule CCCNc1nc(NCCc2ccncc2)ncc1-c1nnc(C2CC2)o1 ?
Solution: 217

Exercise: Entry FCCCNc1nc(NCCc2ccncc2)ncc1-c1nnc(CN2CCNCC2)o1 has what clearance?
Solution: 1.67

Exercise: Return reported clearance; argument: c1ccc(Nc2nc(NCCc3ccncc3)ncc2-c2nnc(C3CC3)o2)cc1
Solution: 317

Exercise: Which clearance is listed for CCOc1nc(NCCc2ccncc2)ncc1-c1nnc(C2CC2)o1 ?
Solution: 23.3

Exercise: # get_value(readout='clearance', item= CCCNc1nc(NCCc2ccncc2)ncc1-c1nnc(CN2CCNCC2)o1 )
Solution: 18.3

====

# reported IC50; entries follow
ASSAY_TARGET: Receptor-type tyrosine-protein kinase FLT3 (Homo sapiens)
Sequence (P36888 whole entry): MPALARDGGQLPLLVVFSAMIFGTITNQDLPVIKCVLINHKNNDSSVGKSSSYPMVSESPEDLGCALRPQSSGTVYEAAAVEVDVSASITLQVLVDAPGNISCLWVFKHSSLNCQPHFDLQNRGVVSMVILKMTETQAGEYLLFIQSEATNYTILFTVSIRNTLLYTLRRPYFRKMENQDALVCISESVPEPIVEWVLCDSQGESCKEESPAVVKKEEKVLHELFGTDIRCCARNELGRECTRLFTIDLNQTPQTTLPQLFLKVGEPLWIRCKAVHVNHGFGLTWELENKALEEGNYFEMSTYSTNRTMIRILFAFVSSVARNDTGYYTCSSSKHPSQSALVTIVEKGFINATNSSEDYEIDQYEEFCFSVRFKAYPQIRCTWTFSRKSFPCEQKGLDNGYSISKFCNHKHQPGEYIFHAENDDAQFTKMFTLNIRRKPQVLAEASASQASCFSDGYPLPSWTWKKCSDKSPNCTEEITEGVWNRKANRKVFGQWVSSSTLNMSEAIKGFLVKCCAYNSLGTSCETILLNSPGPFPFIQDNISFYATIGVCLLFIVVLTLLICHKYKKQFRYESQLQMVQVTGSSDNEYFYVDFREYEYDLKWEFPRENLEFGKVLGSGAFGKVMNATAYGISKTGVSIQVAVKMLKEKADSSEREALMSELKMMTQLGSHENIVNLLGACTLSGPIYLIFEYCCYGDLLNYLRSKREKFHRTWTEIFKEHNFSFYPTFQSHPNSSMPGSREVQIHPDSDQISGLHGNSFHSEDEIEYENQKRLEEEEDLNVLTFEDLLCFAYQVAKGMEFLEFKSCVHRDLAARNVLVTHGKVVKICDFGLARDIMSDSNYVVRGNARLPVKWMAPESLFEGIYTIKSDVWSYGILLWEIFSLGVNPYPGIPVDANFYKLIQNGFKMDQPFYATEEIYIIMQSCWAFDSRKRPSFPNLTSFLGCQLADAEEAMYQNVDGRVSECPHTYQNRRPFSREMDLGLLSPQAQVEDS
Write the number in µM without appending the unit.

Exercise: Endpoint output: IC50 of CCCNc1nc(NCCc2cccs2)ncc1-c1nnc(C)o1 . Value?
Solution: 0.373

Exercise: Sample c1ccc(Nc2nc(NCCc3ccncc3)ncc2-c2nnc(C3CC3)o2)cc1 — what was its IC50?
Solution: 0.047

Exercise: Entry CCOc1nc(NCCc2ccncc2)ncc1-c1nnc(C2CC2)o1 has what IC50?
Solution: 0.08

====

Reported clearance values for a set of molecules
Test system: Liver microsomes
PROCEDURE_DETAILS: Metabolic stability in human liver microsomes assessed as intrinsic clearance
Type: ADME, Microsome
All answers are understood in mL/min/kg, so give the number only.

Examples with their reported clearance follow.
Cc1ccc(Nc2nc(NCCc3ccncc3)ncc2-c2nnc(C3CC3)o2)cc1    183
Oc1ccc(CCNc2ncc(-c3nnc(C4CC4)o3)c(Nc3ccccc3)n2)cc1    85
Nc1ccc(CCNc2ncc(-c3nnc(C4CC4)o3)c(Nc3ccccc3)n2)cc1    68.3
CCCNc1nc(NCCc2ccncc2)ncc1-c1nnc(CN2CCN(C)CC2)o1    81.7
CC(C)Nc1nc(NCCc2ccncc2)ncc1-c1nnc(CN2CCNCC2)o1    25

Exercise: Suppose we examine the molecule CCCNc1nc(NCCc2ccncc2)ncc1-c1nnc(CN2C[C@@H](C)N[C@@H](C)C2)o1 ; what clearance value has been reported?
Solution: 115

Exercise: Entry CCCNc1nc(NCCc2ccncc2)ncc1-c1nnc(CN2CCOCC2)o1 : reported clearance = ?
Solution: 167

Exercise: Consider the molecule CCNc1nc(NCCc2ccncc2)ncc1-c1nnc(CN2C[C@@H](C)N[C@@H](C)C2)o1 and give its measured clearance.
Solution: 13.3

Exercise: Give the measured clearance of OCCNc1nc(NCCc2ccncc2)ncc1-c1nnc(C2CC2)o1 .
Solution: 20

Exercise: Which value of clearance has been reported for c1ccc(Nc2nc(NCCc3ccncn3)ncc2-c2nnc(C3CC3)o2)cc1 in the records?
Solution: 73.3

====

List of GI50 values.
Tested on: MOLM-13
PROCEDURE_DETAILS: Antiproliferative activity against human MOLM13 cells after 72 hrs by WST-1 assay
Format: functional
PARTICULARS: MOLM-13, 72 h
Quote the value and follow it with the unit of measurement.

Below are worked cases with known answers.
c1cc(CCNc2ncc(-c3nnc(CN4CCNCC4)o3)c(NC3CCC3)n2)ccn1    0.05 µM
Cc1cc(CCNc2ncc(-c3nnc(C4CC4)o3)c(Nc3ccccc3)n2)ccn1    0.137 µM
CN1CCN(Cc2nnc(-c3cnc(NCCc4ccncc4)nc3NCC3CC3)o2)CC1    0.052 µM
Nc1ccc(CCNc2ncc(-c3nnc(C4CC4)o3)c(Nc3ccccc3)n2)cc1    0.287 µM

With those in mind, consider the next compound.
Exercise: What measured GI50 goes with CCCNc1nc(NCCc2ccncc2)ncc1-c1nnc(CN2CCNCC2)o1 ?
Solution: 0.029 µM
